Sourced from the supplement of paper PMC9732359

Entries annotated with measured protein stability index
Test: protein stability index of a GFP-peptide fusion (yeast GPS) (PSI 1-4); higher = more stable; sorted into four equal gates, so the index is relative within each strain
Conditions: doa10∆
// no unit string in output, number only

As a guide, the following entries are already answered.
Residues	Val
ILGDLGKEFGTTPEKPE [FAS2]	2.83
ALREMRKSDQQDVLKGS [POP1]	3.36
RDHKSYSQSPPRSPGRS [SMC4]	2.59
PQQAQQQPNPLHGLTPT [GAL11]	3
RLAPLIKEENDMENMAD [ARP7]	3.75
LVVRFTNKDIICQIISS [RPL5]	1.62
EDETVKVAQLRQTGPAK [NSL1]	3.1
RGFSKDLKSKADKLADM [RRP6]	3.34
KRAKEFITTLLKSLYSF [SIN4]	2.19
SNQERCHDEGNDMLQRN [RRI1]	3.33

What value of protein stability index has been recorded for this entry: GRNGSNGNDESSEYETI [NUT1]
3.13

Same read-out for DLEKLLEMSTEDFVKLA [RPS15] ?
3.11

Entry MKLKLMIVYYKDAISFI [YCS4] please
1.82
